# Test system: A549-ACE2 infected with SARS-CoV-2
# ASSAY_PROCEDURE: SARS-CoV-2 infection rate relative to DMSO; higher = more infection
# TEST_SETTINGS: 0.3 µM; 24 h
READOUT_TYPE: SARS-CoV-2 infection rate
Hi, when you answer, please include the unit after the number. Thanks!

Incoming: Consider the molecule COc1ccc2cc1Oc1ccc(cc1)C[C@H]1c3cc(c(OC)cc3CCN1C)Oc1c(OC)c(OC)cc3c1[C@H](C2)N(C)CC3 [tetrandrine] and give its recorded SARS-CoV-2 infection rate.
Outgoing: 92%

Incoming: Name the recorded SARS-CoV-2 infection rate of the molecule listed here: CN1CCN(CCCN2c3ccccc3Sc3ccc(Cl)cc32)CC1 [prochlorperazine]
Outgoing: 95%

Incoming: Tell me SARS-CoV-2 infection rate reported for CN1C2C=C(c3sccc3Br)CC1CC2 (stereo not given) [NS-3861]
Outgoing: 97%

Incoming: Please list SARS-CoV-2 infection rate recorded for the molecule CCCCCC(=O)O[C@]1(C(C)=O)CC[C@H]2[C@@H]3CCC4=CC(=O)CC[C@]4(C)[C@H]3CC[C@@]21C [17-hydroxyprogesterone-caproate]
Outgoing: 95%

Incoming: Give the measured SARS-CoV-2 infection rate for CCN(CC)CC1CCN(c2ncc3ncnc(Nc4ccc(F)c(Cl)c4)c3n2)CC1 [BIBU-1361]
Outgoing: 98%

---

Would you mind telling me the reported cell viability of each entry?
# Tested on: Vero E6
# ASSAY_PROCEDURE: cell viability relative to DMSO; higher = less toxic
# TEST_SETTINGS: 72 h; 100 nM

Incoming: For the compound Nc1nccs1 [aminothiazole] , give its measured cell viability value.
Outgoing: 98.2%

Incoming: Output measured cell viability for this item: Oc1c(I)cc(I)c(O)c1I [riodoxol]
Outgoing: 99.6%

Incoming: Answer with the recorded cell viability of CN(c1nccc(=O)[nH]1)C1CCN(c2nc3ccccc3n2Cc2ccc(F)cc2)CC1 [mizolastine] only.
Outgoing: 98.6%

Incoming: Tell us which cell viability value is on record for O=C(O)CNC(=O)c1c(O)c2ccccc2n(Cc2ccccc2)c1=O [IOX2]
Outgoing: 102%

Incoming: State, in one line, measured cell viability of O=C1C(CC[S+]([O-])c2ccccc2)C(=O)N(c2ccccc2)N1c1ccccc1 (stereo not given) [sulfinpyrazone]
Outgoing: 100%

Incoming: Look up cell viability of OC[C@H]1O[C@H](O)C[C@@H](O)[C@@H]1O [2-deoxyglucose] and report it.
Outgoing: 90.6%

Incoming: Report measured cell viability; entry is Cc1cc(C)cc(C(=O)NOCCCCCC(=O)NO)c1 [LMK-235]
Outgoing: 96.1%

Incoming: Return value of cell viability for input CC(C)C(=O)Nc1ccc([N+](=O)[O-])c(C(F)(F)F)c1 [flutamide] , no commentary.
Outgoing: 104%

Incoming: Query cell viability for COC(=O)N[C@H](C(=O)N1CC2(CC2)C[C@H]1c1nc(-c2ccc3c(c2)C(F)(F)c2cc(-c4ccc5[nH]c([C@@H]6[C@H]7CC[C@H](C7)N6C(=O)[C@@H](NC(=O)OC)C(C)C)nc5c4)ccc2-3)c[nH]1)C(C)C [ledipasvir]
Outgoing: 91.9%

Incoming: Indicate its recorded cell viability; the compound in question is CCOC(=O)c1c[nH]cn1 [C-751]
Outgoing: 99.6%

---

Give measured cell viability for each item. Keep answers brief.
# System: Caco-2
# ASSAY_PROCEDURE: cell viability relative to DMSO; higher = less toxic
# TEST_SETTINGS: 72 h; 100 nM
Give the quantity in %, number only.

Incoming: Let me know recorded cell viability for CCC1(CC)C(=O)NC(=O)N(C)C1=O , thanks.
Outgoing: 104

Incoming: Specify cell viability for CC(C)C[C@H](NC(=O)CNC(=O)[C@H](Cc1ccc(O)cc1)NC(=O)[C@H](CO)NC(=O)[C@H](Cc1c[nH]c2ccccc12)NC(=O)[C@H](Cc1cnc[nH]1)NC(=O)[C@@H]1CCC(=O)N1)C(=O)N[C@@H](CCCNC(=N)N)C(=O)N1CCC[C@H]1C(=O)NCC(N)=O and stop.
Outgoing: 100

Incoming: Specify cell viability for Cc1c(C(=O)Nc2ccc(N3C[C@@H](C)O[C@@H](C)C3)nc2)cccc1-c1ccc(OC(F)(F)F)cc1 and stop.
Outgoing: 95.7

Incoming: Fill in cell viability for record Oc1c(I)cc(I)c(O)c1I
Outgoing: 98.1

Incoming: Give the measured cell viability for Nc1ncnc2nc(-c3ccc(N4CCOCC4)nc3)cc(-c3cccc(Br)c3)c12
Outgoing: 102

Incoming: Quick one: give measured cell viability for Cc1cc(O)c2c(=O)c3c(O)cc(O)c4c5c(O)cc(O)c6c(=O)c7c(O)cc(C)c8c1c2c(c34)c(c78)c65
Outgoing: 104

Incoming: Fill in cell viability for record O=C(O)c1ccccc1NC(=O)N1CCC(c2ccccc2C(F)(F)F)CC1
Outgoing: 98.4

Incoming: Consider the molecule CCOC(=O)c1c[nH]cn1 and give its recorded cell viability.
Outgoing: 96.4

---

Record form. Attribute: cell viability. Fill in for each entry.
# Tested on: Calu-3
# ASSAY_PROCEDURE: cell viability relative to DMSO; higher = less toxic
# TEST_SETTINGS: 72 h; 10000 nM
Entry format: amount then unit.

Incoming: // output cell viability; input CCCCCCCCCCCCCCCCNc1ccc(C(=O)O)cc1 ; system Calu-3
Outgoing: 95.4%

Incoming: Name the recorded cell viability of CCCCCC(O)CCCC(=O)O (stereo not given) , assay system Calu-3.
Outgoing: 99.4%

Incoming: Write down the reported cell viability (system: Calu-3) of COc1cn(-c2ccc(-n3cccn3)cc2F)nc(-c2ccnn2-c2ccccc2)c1=O
Outgoing: 109%

Incoming: Please look at c1ccc2nc(C3=NCCN3)cnc2c1 and tell me its recorded cell viability on Calu-3.
Outgoing: 99.8%

Incoming: Find the measured cell viability of Cn1c(NCCN(CCO)CCCc2ccc([N+](=O)[O-])cc2)cc(=O)n(C)c1=O with Calu-3 as test system.
Outgoing: 95.3%

Incoming: Report cell viability under test system Calu-3 for O=C(Nc1ccc(Oc2ccc(Cl)cn2)c(Cl)c1)c1ccccn1 .
Outgoing: 97.7%

Incoming: Report the value of cell viability obtained on Calu-3 for Oc1ccc2ccccc2c1 .
Outgoing: 116%

Incoming: Provide measured cell viability on Calu-3 for Cn1nnc2c(C(N)=O)ncn2c1=O [temozolomide] please.
Outgoing: 98.6%

Incoming: Retrieve cell viability on Calu-3; query c1ccc(CCCN2CCN(CCOC(c3ccccc3)c3ccccc3)CC2)cc1
Outgoing: 99.7%

Incoming: For Calu-3, give cell viability of the listed compound: CC(C)=CCC[C@](C)(O)[C@H]1CC[C@]2(C)[C@@H]1[C@H](O)C[C@@H]1[C@@]3(C)CC[C@H](O)C(C)(C)[C@@H]3[C@@H](O)C[C@]12C
Outgoing: 93.4%

Incoming: Lab note: Calu-3 assay, enter cell viability for NNC(=O)c1ccncc1 here
Outgoing: 99.8%

Incoming: GET cell viability where system = Calu-3 and item = N#Cc1c(N)nc(SCc2csc(-c3ccc(Cl)cc3)n2)c(C#N)c1-c1ccc(OCCO)cc1
Outgoing: 95.6%

Incoming: Report value only: cell viability, Calu-3, COc1cc(/C=C/c2ccc(OC)cc2OC)cc(OC)c1
Outgoing: 62.8%

Incoming: Give the observed cell viability of O=C1c2ccccc2C(=O)c2ccccc21 for Calu-3.
Outgoing: 98.2%

Incoming: Report value: cell viability, system: Calu-3, compound: COc1ccc(CCN)cc1OC
Outgoing: 95.7%

Incoming: Tell me cell viability of NCC1OC(C23CC4CC(CC(C4)C2)C3)Cc2c1ccc(O)c2O (stereo not given) when tested on Calu-3.
Outgoing: 65.3%

Incoming: Report cell viability from Calu-3 testing of Cc1cc(O)c2c(=O)c3c(O)cc(O)c4c5c(O)cc(O)c6c(=O)c7c(O)cc(C)c8c1c2c(c34)c(c78)c65
Outgoing: 79.7%

Incoming: Under Calu-3, report cell viability for COC(=O)N[C@H](C(=O)N1CCC[C@H]1c1nc(-c2ccc3c(c2)O[C@@H](c2ccccc2)n2c-3cc3cc(-c4c[nH]c([C@@H]5CCCN5C(=O)[C@@H](NC(=O)OC)C(C)C)n4)ccc32)c[nH]1)C(C)C
Outgoing: 102%

Incoming: Please tell me the measured cell viability for COc1cc(C2Oc3cc([C@H]4Oc5cc(O)cc(O)c5C(=O)[C@@H]4O)ccc3OC2CO)ccc1O (stereo not given in full) ; system: Calu-3.
Outgoing: 99.3%

Incoming: Fetch value of cell viability on Calu-3 for CS(=O)(=O)c1ccc(Cn2c3c(c4cc(F)cc(F)c42)CCCC3CC(=O)O)cc1 (stereo not given) .
Outgoing: 100%

Incoming: Provide cell viability, tested on Calu-3, for CN(Cc1ccccc1)C(=O)[C@H](Cc1ccc2ccccc2c1)NC(=O)[C@@H]1CCCN1C(=O)Nc1ccccc1[N+](=O)[O-] .
Outgoing: 90.7%

Incoming: Give Calu-3 cell viability for the following compound: CN(CCOc1ccc(CC2SC(=O)NC2=O)cc1)c1ccccn1 (stereo not given)
Outgoing: 108%

Incoming: State measured cell viability of the compound COC(=O)c1ccccc1NC(=O)c1ccc(F)cc1 [EXO-1] with Calu-3.
Outgoing: 96.5%

Incoming: Look up and report measured cell viability (Calu-3) for the following compound: Cn1cc(C(=O)c2cccc3ccccc23)cc1C(=O)O
Outgoing: 104%

Incoming: Fill in: cell viability on Calu-3, entry Nc1nc(O)c2ncn(CCC(CO)CO)c2n1
Outgoing: 99.5%

Incoming: Fill: cell viability (Calu-3) for this compound CCN1C(=O)CNc2ncc(-c3ccc(-c4nc[nH]n4)nc3C)nc21
Outgoing: 21.6%

Incoming: Please report cell viability with Calu-3 for item N=C(N)NCCC[C@@H](NC(=O)[C@@H]1CCCN1C(=O)[C@@H]1CSSCCC(=O)N[C@@H](Cc2ccc(O)cc2)C(=O)N[C@@H](Cc2ccccc2)C(=O)N[C@@H](CCC(N)=O)C(=O)N[C@@H](CC(N)=O)C(=O)N1)C(=O)NCC(N)=O [desmopressin-acetate] .
Outgoing: 102%

Incoming: Print Calu-3 cell viability for Cc1nnc2ccc(-c3cccc(C(F)(F)F)c3)nn12 .
Outgoing: 91.2%

Incoming: GET cell viability | system: Calu-3 | item: CCOc1ccccc1OCC1CNCCO1 (stereo not given)
Outgoing: 111%

Incoming: Report cell viability under test system Calu-3 for CC(=O)Nc1cccc2c1c(Sc1ccc(Cl)cc1)c(C)n2CC(=O)O .
Outgoing: 96.2%

Incoming: Find cell viability for CC(C)N1CCN(c2ccc(OCC3COC(Cn4cncn4)(c4ccc(Cl)cc4Cl)O3)cc2)CC1 (stereo not given) on Calu-3 and write it down.
Outgoing: 54.7%

Incoming: Give cell viability only, for CN(C)CCOC(C)(c1ccccc1)c1ccccn1 (stereo not given) , using Calu-3 data.
Outgoing: 108%

Incoming: Give reported cell viability for CCOC(=O)Nc1ccc2c(c1)N(C(=O)CCN(CC)CC)c1ccccc1S2 (Calu-3)
Outgoing: 98.1%

Incoming: Output reported cell viability of the compound C[C@@H]1CC(=O)c2c(ccc3c2C(=O)c2cccc(O)c2C3=O)C1 on Calu-3.
Outgoing: 92.8%

Incoming: // fetch cell viability for CN1[C@@H]2C[C@@H](O)C[C@H]1[C@@H]1O[C@@H]12 ; system: Calu-3
Outgoing: 103%
